# experimentalTarget: Alpha-2A adrenergic receptor [16-465] (Rattus norvegicus)
# Sequence (P22909 whole entry): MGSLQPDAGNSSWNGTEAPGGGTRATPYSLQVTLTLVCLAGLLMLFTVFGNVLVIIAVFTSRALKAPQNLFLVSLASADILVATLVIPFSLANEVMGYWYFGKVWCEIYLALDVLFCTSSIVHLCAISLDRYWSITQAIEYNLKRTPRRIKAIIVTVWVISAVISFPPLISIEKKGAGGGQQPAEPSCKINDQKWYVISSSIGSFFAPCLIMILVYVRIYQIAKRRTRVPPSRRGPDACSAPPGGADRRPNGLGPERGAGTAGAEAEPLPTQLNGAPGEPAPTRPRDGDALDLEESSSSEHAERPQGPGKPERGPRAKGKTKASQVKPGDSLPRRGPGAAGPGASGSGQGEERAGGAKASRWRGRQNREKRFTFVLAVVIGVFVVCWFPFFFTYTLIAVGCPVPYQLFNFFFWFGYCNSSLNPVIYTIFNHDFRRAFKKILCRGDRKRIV

compound: O=C1NCN(c2ccccc2)C12CCN(CC1COc3ccccc3O1)CC2 (centres undefined)
Ki (nM): 70
//
compound: COc1cccc(OC)c1OCCNCC1Oc2ccccc2OC1c1ccccc1 (centres undefined) [NSC_185453]
Ki (nM): 46
//
compound: CC(C)=CCOc1ccc(Cl)c2c1CCN(C)CC2 [SK&F-104078]
Ki (nM): 248
//
compound: CN1C[C@H](Cn2ccnc2-c2ccccc2)C[C@@H]2c3cccc4[nH]c(Br)c(c34)C[C@H]21 [BAM-1303]
Ki (nM): 35
